Please find below log10 IC50 data on IRAK4 (Homo sapiens (Human), UniProt Q9NWZ3) compiled from the literature.
Annotation: log10 of IC50, nM basis.

O=C(Nc1nc2ccc(-c3cnc(CO[C@H]4CCC[C@@H]4O)nc3)cc2s1)C1CC(N2CCC3(CC2)COC3)C1 (some centres unmarked) ... 0.20
COc1cc2nn([C@H]3CC[C@](O)(COCCC4CCN(C(=O)c5ccc(Cl)c(N6CCC(=O)NC6=O)c5)CC4)CC3)cc2cc1NC(=O)c1cccc(C(F)(F)F)n1 ... 1.11
CN1CCN(C2CC(C(=O)Nc3nc4ccc(-c5cnc(CO[C@H]6CCC[C@@H]6O)nc5)cc4s3)C2)CC1 (some centres unmarked) ... 0.28
O=C(Nc1nc2ccc(-c3cnc(CO[C@H]4CCC[C@@H]4O)nc3)cc2s1)C1CC(N2CCOC3(CCC3)C2)C1 (some centres unmarked) ... 0.38
O=C(Nc1nc2ccc(-c3cnc(CO[C@H]4CCC[C@@H]4O)nc3)cc2s1)C1CC(N2CCC(F)(F)C2)C1 (some centres unmarked) ... 0.58
CN(CC(F)F)C1CC(C(=O)Nc2nc3ccc(-c4cnc(CO[C@H]5CCC[C@@H]5O)nc4)cc3s2)C1 (some centres unmarked) ... 0.41
O=C(Nc1nc2ccc(-c3cnc(CO[C@H]4CCC[C@@H]4O)nc3)cc2s1)[C@@H]1C[C@H]1F ... 0.43
N=S(=O)(CCn1cc2cc(NC(=O)c3cnn4cccnc34)c(N3CCOCC3)cc2n1)c1ncccn1 (centres unmarked) ... -0.40

// batch mode: one log10 IC50 value per listed entry
1. CN(C)CC1CC(C(=O)Nc2nc3ccc(-c4cnc(CO[C@H]5CCC[C@@H]5O)nc4)cc3s2)C1 (some centres unmarked)
2. CN(CCO)C1CC(C(=O)Nc2nc3ccc(-c4cnc(CO[C@H]5CCC[C@@H]5O)nc4)cc3s2)C1 (some centres unmarked)
3. O=C(Nc1nc2ccc(-c3cnc(CO[C@H]4CCC[C@@H]4O)nc3)cc2s1)C1CC2(COC2)C1

Result:
1: 0.18; 2: 0.17; 3: 0.24

// batch mode: one log10 IC50 value per listed entry
1. O=C(Nc1nc2ccc(-c3cnc(CO[C@H]4CCC[C@@H]4O)nc3)cc2s1)C1C[C@H]1C1CCOCC1 (some centres unmarked)
2. O=C1CCN(c2cc(C(=O)N3CCC4(CCN(C[C@H]5CC[C@H](n6cc(NC(=O)c7cnn8ccc(N9CC%10(COC%10)C9)nc78)c(C(F)F)n6)CC5)CC4)CC3)ccc2Cl)C(=O)N1

Result:
1: 0.26; 2: 1.56
